system: human IL-21R expressed on cells (human, UniProt Q9HBE5 20-538)
Sequence (Q9HBE5 20-538 limits assumed): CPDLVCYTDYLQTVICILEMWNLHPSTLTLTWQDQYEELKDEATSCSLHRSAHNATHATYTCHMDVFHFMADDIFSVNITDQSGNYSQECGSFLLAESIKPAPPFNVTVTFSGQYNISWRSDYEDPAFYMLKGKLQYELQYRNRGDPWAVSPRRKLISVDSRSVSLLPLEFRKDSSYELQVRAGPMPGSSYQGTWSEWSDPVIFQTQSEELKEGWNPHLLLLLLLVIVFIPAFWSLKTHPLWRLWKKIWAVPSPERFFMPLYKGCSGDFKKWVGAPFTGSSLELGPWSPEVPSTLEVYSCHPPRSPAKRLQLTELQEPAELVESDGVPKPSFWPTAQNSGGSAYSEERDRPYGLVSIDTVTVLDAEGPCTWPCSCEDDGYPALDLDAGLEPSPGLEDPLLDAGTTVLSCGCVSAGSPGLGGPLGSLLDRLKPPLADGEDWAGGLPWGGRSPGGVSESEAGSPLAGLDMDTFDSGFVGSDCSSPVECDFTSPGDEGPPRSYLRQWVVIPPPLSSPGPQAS
assayExplanation: cell-based or functional assay
resultType: Human IL-21R-BaF3 Proliferation IC50
I'd appreciate it if you wrote the number followed by its unit.

[[record]]
binder = "AbG (antibody, human IgG1, V domains shown, Full-length human IgG1 / human lambda, transient, conditioned medium; Framework limits derived; also called VHP/VL18) VH: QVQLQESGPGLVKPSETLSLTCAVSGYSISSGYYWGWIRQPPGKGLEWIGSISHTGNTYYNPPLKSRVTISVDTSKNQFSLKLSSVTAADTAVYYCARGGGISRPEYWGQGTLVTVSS VL: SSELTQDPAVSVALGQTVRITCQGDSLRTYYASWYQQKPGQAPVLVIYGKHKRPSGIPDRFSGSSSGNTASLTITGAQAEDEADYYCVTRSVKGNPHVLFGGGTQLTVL"
resulttype = "Human IL-21R-BaF3 Proliferation IC50"
result = "0.77 nM"

[[record]]
binder = "AbF (antibody, human IgG1, V domains shown, Full-length human IgG1 / human lambda, transient, conditioned medium; Framework limits derived; also called VHP/VL17) VH: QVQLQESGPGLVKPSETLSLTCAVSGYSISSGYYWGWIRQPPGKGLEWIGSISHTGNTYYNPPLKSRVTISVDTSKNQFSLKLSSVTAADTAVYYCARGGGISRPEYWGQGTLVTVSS VL: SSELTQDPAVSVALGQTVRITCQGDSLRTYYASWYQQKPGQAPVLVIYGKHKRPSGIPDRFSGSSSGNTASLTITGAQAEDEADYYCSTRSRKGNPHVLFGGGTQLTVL"
resulttype = "Human IL-21R-BaF3 Proliferation IC50"
result = "0.54 nM"


Let us move to another entry and its Human IL-21R-BaF3 Proliferation IC50.
Exam item: What value of Human IL-21R-BaF3 Proliferation IC50 has been recorded for this entry: AbQ (antibody, human IgG1, V domains shown, Purified form: human IgG1 double-mutant (L234A, G237A); Framework limits derived; also called VH3/VL2; VH3DM/VL2) VH: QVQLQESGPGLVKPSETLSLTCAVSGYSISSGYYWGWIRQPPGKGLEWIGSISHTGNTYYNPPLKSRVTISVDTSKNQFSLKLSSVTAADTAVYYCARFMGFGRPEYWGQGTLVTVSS VL: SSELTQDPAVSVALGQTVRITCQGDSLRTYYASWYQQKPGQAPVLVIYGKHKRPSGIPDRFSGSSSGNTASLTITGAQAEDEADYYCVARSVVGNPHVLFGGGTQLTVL
Marked response: 0.68 nM
